Would you kindly list viability at 216 h, 10 µM for each of these molecules?
# TEST_DETAILS: Inactivator toxicity in bone marrow cells (GM-CFC colonies, inactivator alone)
# Assay type: cell-based, human
# TEST_SETTINGS: human, bone marrow gm-cfc, inactivator 10uM, Patient A; read-out: No. of colonies as % of control (ie no inactivator)
Give bare numbers, in %.

# MOLECULE, viability at 216 h, 10 µM (%)
rows = [
    ("Nc1nc(OCc2cccs2)c2nc[nH]c2n1", 91),
]

As a next step, examine the molecule that follows.
What value of viability at 216 h, 10 µM has been reported for the following molecule? Nc1nc(OCc2ccccc2)c2nc[nH]c2n1 [O^6-benzylguanine, reference compound]
95

----------
# TEST_DETAILS: Growth inhibition of V79 cells by inactivator alone
# Assay type: cell-based, Chinese hamster
# TEST_SETTINGS: chinese hamster, v79 cells; Figure 5; read-out: growth inhibitory dose in V79 cells relative to the I50 dose
RECORDED_ENDPOINT: selectivity ratio

What value of selectivity ratio has been reported for the following compound? Nc1nc(OCc2ccco2)c2nc[nH]c2n1
≥ 100

----------
# Tested on: A375M cells
# TEST_DETAILS: Sensitization of A375M cells to BCNU (MTT assay)
# Format: cell-based, human
# TEST_SETTINGS: inactivator 5.0uM 2 hours before
RECORDED_ENDPOINT: A375M sensitization (D50.^C/D50.^I) 5.0uM
Give bare numbers.

# example entries with known answers
# COMPOUND, RECORDED_VALUE
records = [
    ("Nc1nc(OCc2ccccc2)c2nc[nH]c2n1 [O^6-benzylguanine, reference compound]", 4.2),
    ("Nc1nc(OCc2cc3ccccc3s2)c2nc[nH]c2n1 [B.4226, O^6-(2-benzo[b]thienylmethyl)guanine]", 4.5),
]

As a next step, examine the compound that follows.
What value of A375M sensitization (D50.^C/D50.^I) 5.0uM has been reported for the following compound? Nc1nc(OCc2cc3ccccc3o2)c2nc[nH]c2n1
6.3

----------
# Tested on: Raji cells
# TEST_DETAILS: Sensitization of Raji cells to BCNU (XTT assay)
# Type: cell-based, human
# TEST_SETTINGS: BCNU, 2 hour pretreatment, inactivator 1.0µM
Would you kindly list Raji sensitization (D90.^C/D90.^I) 1.0µM for each of these compounds?
Answers are plain numbers.

# example entries with known answers
# COMPOUND, Raji sensitization (D90.^C/D90.^I) 1.0µM
data = [
    ("Nc1nc(OCc2ccco2)c2nc[nH]c2n1", 5.7),
    ("Cc1ccc(COc2nc(N)nc3[nH]cnc23)o1", 1.0),
    ("Nc1nc(OCc2cc3ccccc3s2)c2nc[nH]c2n1 [B.4226, O^6-(2-benzo[b]thienylmethyl)guanine]", 10.0),
]

As a next step, examine the compound that follows.
What value of Raji sensitization (D90.^C/D90.^I) 1.0µM has been reported for the following compound? Nc1nc(OCc2ccc3ccccc3c2)c2nc[nH]c2n1
2.9

----------
# TESTED_ON: ATase (Homo sapiens, UniProt P16455)
# Sequence (P16455 whole entry): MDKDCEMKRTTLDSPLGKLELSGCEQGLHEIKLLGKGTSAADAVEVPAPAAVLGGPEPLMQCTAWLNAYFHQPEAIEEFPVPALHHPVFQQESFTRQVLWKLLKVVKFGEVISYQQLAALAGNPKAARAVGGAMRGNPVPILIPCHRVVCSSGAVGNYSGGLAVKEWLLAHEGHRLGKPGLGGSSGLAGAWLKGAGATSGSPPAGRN
# TEST_DETAILS: Inactivation of ATase activity in Raji cells
# Format: cell-based
# Parameters: endogenous in cells; host or cells: Raji
# TEST_SETTINGS: read-out: Inactivation of ATase in Mammalian Cells I50(µM) Human Raji; Human Raji cells, 2 hours at 37°C (Table 5)
RECORDED_ENDPOINT: IC50 (µM)
Answers are plain numbers, in µM.

What value of IC50 has been reported for the following compound? Nc1nc(OCc2cccs2)c2nc[nH]c2n1
0.02
